target: Cannabinoid receptor 1 (Homo sapiens, UniProt P21554); test: Binding affinity to CB1 receptor (unknown origin)
Sequence (P21554 whole entry): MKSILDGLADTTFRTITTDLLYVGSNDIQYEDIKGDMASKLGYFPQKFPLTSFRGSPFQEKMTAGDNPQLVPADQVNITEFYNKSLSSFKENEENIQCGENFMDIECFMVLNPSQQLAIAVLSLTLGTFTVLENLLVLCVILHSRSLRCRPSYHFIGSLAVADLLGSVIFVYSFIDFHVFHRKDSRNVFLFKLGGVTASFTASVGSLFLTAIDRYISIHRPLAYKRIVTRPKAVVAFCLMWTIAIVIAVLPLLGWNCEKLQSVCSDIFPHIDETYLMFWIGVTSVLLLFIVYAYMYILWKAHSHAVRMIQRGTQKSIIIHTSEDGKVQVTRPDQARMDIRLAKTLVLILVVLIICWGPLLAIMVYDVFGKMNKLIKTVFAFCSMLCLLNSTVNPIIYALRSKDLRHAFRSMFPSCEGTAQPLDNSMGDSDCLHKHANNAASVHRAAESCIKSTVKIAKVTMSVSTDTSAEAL
assayReadout: pKi
The quantity pKi is defined as the negative base-10 logarithm of the molar concentration.

>  <cpdSmiles>
COc1cccc2c(C(=O)N[C@@H]3C(C)(C)[C@@H]4CC[C@@]3(C)C4)cn(CCN3CCOCC3)c12

>  <assayReadout>
pKi

>  <experimentalResult>
6.61

$$$$

pKi reported for this compound COc1cccc2c(C(=O)N[C@@H]3C(C)(C)[C@@H]4CC[C@@]3(C)C4)nn(CCN3CCOCC3)c12 : 7.62

The compound CCCCCn1cc(C(=O)c2cccc3ccccc23)c2ccccc21 showed pKi equal to 8.02
